Listing of entries alongside the reported pKd.
test protocol: Binding affinity to hair pin DNA ODN3 5'-XGCCAGCACGGCTTTTGCCGTGCTGGC-3' (unknown origin) by surface plasmon resonance analysis
Kindly note that pKd refers to -log10 of the concentration in mol/L and answer with the value alone.

// worked examples, pKd included
[[record]]
input_smiles = "CN(C)CCCNC(=O)CCNC(=O)c1cc(NC(=O)c2nc(NC(=O)CCNC(=O)c3nc(NC(=O)CCCNC(=O)c4cc(NC(=O)c5nc(NC(=O)c6cc(NC(=O)c7nc(NC(=O)CCNC(=O)CCN)cn7C)cn6C)cn5C)cn4C)cn3C)cn2C)cn1C"
measured = 7.08

[[record]]
input_smiles = "CN(C)CCCNC(=O)CCNC(=O)c1cc(NC(=O)c2nc(NC(=O)c3cc(NC(=O)c4nc(NC(=O)CCCNC(=O)c5cc(NC(=O)c6nc(NC(=O)CCNC(=O)c7nc(NC(=O)CCNC(=O)CCN)cn7C)cn6C)cn5C)cn4C)cn3C)cn2C)cn1C"
measured = 7.96

[[record]]
input_smiles = "CN(C)CCCNC(=O)CCNC(=O)c1cc(NC(=O)c2nc(NC(=O)CCNC(=O)c3nc(NC(=O)CCCNC(=O)c4cc(NC(=O)c5nc(NC(=O)CCNC(=O)c6nc(NC(=O)CCNC(=O)CCN)cn6C)cn5C)cn4C)cn3C)cn2C)cn1C"
measured = 7.96


Looking up `CN(C)CCCNC(=O)CCNC(=O)c1cc(NC(=O)c2nc(NC(=O)c3cc(NC(=O)c4nc(NC(=O)CCCNC(=O)c5cc(NC(=O)c6nc(NC(=O)c7cc(NC(=O)c8nc(NC(=O)CCNC(=O)CCN)cn8C)cn7C)cn6C)cn5C)cn4C)cn3C)cn2C)cn1C` , I found its pKd recorded as 4.20

* * *

Listing of entries alongside the reported pKd.
test protocol: Binding affinity to hair pin DNA ODN4 5'-XGCCATGACGGCTTTTGCCGTACTGGC-3' (unknown origin) by surface plasmon resonance analysis
Kindly note that pKd refers to -log10 of the concentration in mol/L and answer with the value alone.

Looking up `CN(C)CCCNC(=O)CCNC(=O)c1cc(NC(=O)c2nc(NC(=O)CCNC(=O)c3nc(NC(=O)CCCNC(=O)c4cc(NC(=O)c5nc(NC(=O)CCNC(=O)c6nc(NC(=O)CCNC(=O)CCN)cn6C)cn5C)cn4C)cn3C)cn2C)cn1C` , I found its pKd recorded as 7.74

Looking up `CN(C)CCCNC(=O)CCNC(=O)c1cc(NC(=O)c2nc(NC(=O)c3cc(NC(=O)c4nc(NC(=O)CCCNC(=O)c5cc(NC(=O)c6nc(NC(=O)c7cc(NC(=O)c8nc(NC(=O)CCNC(=O)CCN)cn8C)cn7C)cn6C)cn5C)cn4C)cn3C)cn2C)cn1C` , I found its pKd recorded as 4.09

Looking up `CN(C)CCCNC(=O)CCNC(=O)c1cc(NC(=O)c2nc(NC(=O)CCNC(=O)c3nc(NC(=O)CCCNC(=O)c4cc(NC(=O)c5nc(NC(=O)c6cc(NC(=O)c7nc(NC(=O)CCNC(=O)CCN)cn7C)cn6C)cn5C)cn4C)cn3C)cn2C)cn1C` , I found its pKd recorded as 6.72

Looking up `CN(C)CCCNC(=O)CCNC(=O)c1cc(NC(=O)c2nc(NC(=O)c3cc(NC(=O)c4nc(NC(=O)CCCNC(=O)c5cc(NC(=O)c6nc(NC(=O)CCNC(=O)c7nc(NC(=O)CCNC(=O)CCN)cn7C)cn6C)cn5C)cn4C)cn3C)cn2C)cn1C` , I found its pKd recorded as 7.33
